protocol text: physchem
condition parameters: oil or lipid

{"columns": ["given smiles", "solubility"],
 "data": [
  ["CC12CC3CC(C)(C1)CC(C(=O)Nc1nc4ccc(OC(F)(F)F)cc4s1)(C3)C2", "≤ 250 mg/mL"]
]}
